test system: U2OS; experiment: drug sensitivity score (DSS) for viability; higher = more toxic; extreme values may be limits of the assay; conditions: 72 h
outcome measure: drug sensitivity score
Returns: the value as a bare number; no unit string appended.

Challenge: Using the record for OCc1cncc(F)c1 , report its drug sensitivity score.
Response given: 0

Challenge: Using the record for C[N+](C)(CCOc1ccccc1)Cc1ccccc1 [bephenium-hydroxynaphthoate] , report its drug sensitivity score.
Response given: 0

Challenge: Using the record for O=C(c1ccc(Nc2nccc(-c3cc4ccccc4s3)n2)cc1)N1CCC(N2CCCC2)CC1 , report its drug sensitivity score.
Response given: 6.8

Challenge: Using the record for CCC1(C)CC(=O)NC1=O (stereo not given) [ethosuximide] , report its drug sensitivity score.
Response given: 0

Challenge: Using the record for CC(OC(=O)OC1CCCCC1)OC(=O)C1=C(CSc2nnnn2CCN(C)C)CS[C@@H]2[C@H](NC(=O)Cc3csc(N)n3)C(=O)N12 (stereo not given in full) , report its drug sensitivity score.
Response given: 0

* * *

Exercise: state measured cell viability for each of the compounds provided.
tested on: U2OS; experiment: cell viability relative to DMSO; higher = less toxic; settings: 72 h; 100 nM
Where a name gives a salt, the structure may show the parent alone.
Write down the numeric answer in % and omit the unit.

Challenge: Test system U2OS; read-out cell viability; what value for Cn1cc(C(F)(F)F)nc1-c1ccc(OCC(O)CNCCOc2ccc(O)c(C(N)=O)c2)cc1 (stereo not drawn) ?
Response given: 94

Challenge: Test system U2OS; read-out cell viability; what value for CCOC(=O)N[C@@H]1CC[C@@H]2[C@@H](C1)C[C@H]1C(=O)O[C@H](C)[C@H]1[C@H]2/C=C/c1ccc(-c2cccc(F)c2)cn1 ?
Response given: 102

Challenge: Test system U2OS; read-out cell viability; what value for C/C(=C(\CCOP(=O)(O)O)SC(=O)c1ccccc1)N(C=O)Cc1cnc(C)nc1N ?
Response given: 95.7

Challenge: Test system U2OS; read-out cell viability; what value for CN(C(=O)CN(CCO)CC(=O)N(C)C(C)(C)Cc1ccccc1)C(C)(C)Cc1ccccc1 ?
Response given: 101

Challenge: Test system U2OS; read-out cell viability; what value for COc1cccc(C2(O)CCCCC2CN(C)C)c1 (stereo not drawn) [TRAMADOL HYDROCHLORIDE] ?
Response given: 97.5

Challenge: Test system U2OS; read-out cell viability; what value for O=[N+]([O-])c1cc([N+](=O)[O-])c(/C=C/c2ccc(Cl)c(Cl)c2)cc1/C=C/c1ccc(Cl)c(Cl)c1 ?
Response given: 94.8

Challenge: Test system U2OS; read-out cell viability; what value for Cc1nc2ccc(Oc3ccc(F)cc3)cc2c(=O)n1C[C@H]1CCCN(C(C)C)C1 ?
Response given: 98.6

Challenge: Test system U2OS; read-out cell viability; what value for CCC(C)SSc1ncc[nH]1 (stereo not drawn) ?
Response given: 103

* * *

system: HepG2; test: cell viability relative to DMSO; higher = less toxic; conditions: 72 h; 10 nM
outcome measure: cell viability (%)
Write down the numeric answer in % and omit the unit.

Challenge: Using the record for CCOc1ccc2nc3cc(N)ccc3c(N)c2c1 [ethacridine-lactate-monohydrate] , report its cell viability.
Response given: 131

Challenge: Using the record for O=C1NC(=O)/C(=C/c2ccc3nccc(-c4ccncc4)c3c2)S1 , report its cell viability.
Response given: 105

Challenge: Using the record for CC(C)CNc1nc(-c2cccc3ncccc23)cn2c(-c3ccc(C(=O)NC4CC4)cc3)cnc12 , report its cell viability.
Response given: 100

Challenge: Using the record for O=C(O)[C@H](Cc1ccccc1)NCc1ccc(Cl)cc1 , report its cell viability.
Response given: 101

Challenge: Using the record for Cc1cc2nc3c(=O)[nH]c(=O)nc-3n(C[C@H](O)[C@H](O)[C@H](O)COP(=O)(O)O)c2cc1C [riboflavin-5-phosphate-sodium] , report its cell viability.
Response given: 104

Challenge: Using the record for CC(C)[C@H](CO)Nc1nc(Nc2ccc(C(=O)O)c(Cl)c2)c2ncn(C(C)C)c2n1 , report its cell viability.
Response given: 99.2

Challenge: Using the record for Nc1cccc(-c2cc3c(Oc4cccc(O)c4)ncnc3[nH]2)c1 , report its cell viability.
Response given: 107

Cited source: the supplement of paper PMC13380429
